These entries and their values trace back to patent US12371428B2.

Overview of reported IC50 across a group of compounds:
# EXPERIMENTAL_SYSTEM: KDR (phospho-KDR, VEGF165-stimulated HUVEC cells) (Homo sapiens (Human), UniProt P35968)
# Sequence (P35968 20-1356): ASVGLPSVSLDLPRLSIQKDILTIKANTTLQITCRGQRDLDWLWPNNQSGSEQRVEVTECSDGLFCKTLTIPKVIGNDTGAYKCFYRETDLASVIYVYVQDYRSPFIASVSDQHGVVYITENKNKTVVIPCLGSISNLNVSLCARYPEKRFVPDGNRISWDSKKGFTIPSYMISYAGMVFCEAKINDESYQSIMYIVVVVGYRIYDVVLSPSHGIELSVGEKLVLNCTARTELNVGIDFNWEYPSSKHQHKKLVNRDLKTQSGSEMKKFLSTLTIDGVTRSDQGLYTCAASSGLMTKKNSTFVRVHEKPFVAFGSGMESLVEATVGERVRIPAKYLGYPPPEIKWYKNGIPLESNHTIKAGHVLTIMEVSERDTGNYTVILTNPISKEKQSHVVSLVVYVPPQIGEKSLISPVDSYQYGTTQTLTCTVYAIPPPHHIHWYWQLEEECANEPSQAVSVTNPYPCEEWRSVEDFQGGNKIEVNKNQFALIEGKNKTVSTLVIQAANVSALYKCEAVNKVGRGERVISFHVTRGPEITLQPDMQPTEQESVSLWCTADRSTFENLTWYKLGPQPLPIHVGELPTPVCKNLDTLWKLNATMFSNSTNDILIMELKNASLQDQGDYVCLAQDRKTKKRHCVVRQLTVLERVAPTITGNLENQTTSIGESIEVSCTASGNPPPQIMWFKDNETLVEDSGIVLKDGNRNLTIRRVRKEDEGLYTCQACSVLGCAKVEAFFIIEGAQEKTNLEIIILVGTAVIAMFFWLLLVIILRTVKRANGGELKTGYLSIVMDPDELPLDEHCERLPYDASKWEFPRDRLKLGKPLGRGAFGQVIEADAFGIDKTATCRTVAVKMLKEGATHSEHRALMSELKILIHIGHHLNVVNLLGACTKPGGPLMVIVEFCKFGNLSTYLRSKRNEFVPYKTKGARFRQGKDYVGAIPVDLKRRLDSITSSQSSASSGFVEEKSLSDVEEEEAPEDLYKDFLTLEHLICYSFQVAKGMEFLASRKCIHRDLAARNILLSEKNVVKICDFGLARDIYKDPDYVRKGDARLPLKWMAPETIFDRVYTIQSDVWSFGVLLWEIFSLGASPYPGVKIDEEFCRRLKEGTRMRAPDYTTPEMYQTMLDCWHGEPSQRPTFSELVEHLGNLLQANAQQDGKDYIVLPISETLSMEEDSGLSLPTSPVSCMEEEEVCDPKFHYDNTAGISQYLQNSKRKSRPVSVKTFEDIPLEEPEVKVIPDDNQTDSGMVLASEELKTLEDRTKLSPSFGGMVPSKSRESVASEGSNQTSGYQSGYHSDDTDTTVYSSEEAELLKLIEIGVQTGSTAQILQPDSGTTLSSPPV
# ASSAY_NOTES: KDR autophosphorylation ELISA in HUVEC cells (Example G)
# Assay type: cell-based
# ASSAY_CONTEXT: cellular activity; KDR autophosphorylation ELISA in HUVEC cells

Guide cases for IC50, answers given:
* COc1ccc2nccc(Oc3ccc(NC(=O)c4cn(C(C)C)c(C)c(-c5ccc(F)cc5)c4=O)cc3F)c2n1 | > 300 nM
* COc1cnc2c(Oc3ccc(NC(=O)c4cnc(C)c(-c5ccc(OC)c(C)c5)c4O)cc3F)ccnc2c1 | < 100 nM
* COc1cc2nccc(Oc3cc(F)c(NC(=O)c4c(C)nc(C)c(-c5ccc(F)cc5F)c4O)cc3F)c2nc1OC | < 100 nM
* COc1ccc2nccc(Oc3ccc(NC(=O)c4c(C)nc(C)c(-c5ccc(F)cc5)c4O)cc3F)c2n1 | < 100 nM
* COc1cnc2c(Oc3ccc(NC(=O)c4cn(C)c(C)c(-c5ccc(F)cc5)c4=O)cc3)ccnc2c1 | > 300 nM
* COc1cc2nccc(Oc3ccc(NC(=O)c4cn(N(C)C)cc(-c5ccc(F)cc5)c4=O)cc3F)c2nc1OC | < 100 nM

Turning now to a further record.
Inquiry: Consider the compound COc1cnc2c(Oc3ccc(NC(=O)c4cn(C)c(CO)c(-c5ccc(F)cc5)c4=O)cc3)ccnc2c1 and give its measured IC50.
Reply text: > 300 nM

---

# EXPERIMENTAL_SYSTEM: KDR (phospho-KDR, VEGF165-stimulated HUVEC cells) (Homo sapiens (Human), UniProt P35968)
# ASSAY_NOTES: KDR autophosphorylation ELISA in HUVEC cells (Example G)
# Assay type: cell-based
# ASSAY_CONTEXT: cellular activity; KDR autophosphorylation ELISA in HUVEC cells
Structures can show the parent of a compound that is named as a salt.
OBSERVABLE: IC50

As a guide, the following entries are already answered.
• COc1ccc2nccc(Oc3ccc(NC(=O)c4cn(C5CC5)c(C)c(-c5ccc(F)cc5C)c4=O)cc3F)c2n1 = > 300 nM
• C=C(C)c1cnc2c(Oc3ccc(NC(=O)c4nnc(C)c(-c5ccc(F)cc5)c4OCC)cc3F)ccnc2c1 = < 100 nM
• Cc1ncc(C(=O)Nc2ccc(Oc3ccnc4cc(C(C)C)cnc34)c(F)c2)c(O)c1-c1ccc(F)cc1 = < 100 nM
• CCc1nc(C)c(-c2ccc(F)cc2C)c(O)c1C(=O)Nc1ccc(Oc2ccnc3cc(OC)cnc23)c(F)c1 = < 100 nM
• COc1cc2nccc(Oc3ccc(NC(=O)c4cn(C)cc(-c5ccccc5)c4=O)cc3)c2nc1OC [Compound 39, hydrochloride] = < 100 nM
• CCOc1ccn(-c2ccc(F)cc2)c(=O)c1C(=O)Nc1ccc(Oc2ccnc3cc(OC)cnc23)c(F)c1 = > 300 nM

Alright, here's another molecule for you.
Inquiry: Look at this molecule and give its reported IC50. COc1ccc2nccc(Oc3ccc(NC(=O)c4cnc(C)n(-c5ccc(F)cc5)c4=O)cc3)c2n1
Reply text: > 300 nM

---

The following compounds are listed with their measured pIC50 values.
# EXPERIMENTAL_SYSTEM: Human KDR (residues 790-1356) (Homo sapiens (Human), UniProt P35968)
# Sequence (P35968 790-1356): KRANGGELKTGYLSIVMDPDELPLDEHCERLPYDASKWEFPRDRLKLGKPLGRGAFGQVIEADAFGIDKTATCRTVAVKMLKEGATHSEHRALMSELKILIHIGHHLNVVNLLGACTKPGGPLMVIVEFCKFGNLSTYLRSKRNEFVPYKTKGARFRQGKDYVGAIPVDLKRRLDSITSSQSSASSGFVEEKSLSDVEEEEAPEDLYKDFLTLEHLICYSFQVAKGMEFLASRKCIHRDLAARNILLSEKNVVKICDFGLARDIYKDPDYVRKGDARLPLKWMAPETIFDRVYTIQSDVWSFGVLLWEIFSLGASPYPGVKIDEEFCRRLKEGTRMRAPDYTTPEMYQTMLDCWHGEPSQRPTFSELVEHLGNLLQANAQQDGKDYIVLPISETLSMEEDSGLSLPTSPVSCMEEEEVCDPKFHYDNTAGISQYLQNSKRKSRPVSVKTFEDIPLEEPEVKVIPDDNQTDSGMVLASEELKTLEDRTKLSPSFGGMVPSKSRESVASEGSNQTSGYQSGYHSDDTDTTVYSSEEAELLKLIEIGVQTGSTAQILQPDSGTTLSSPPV
# ASSAY_NOTES: Human KDR kinase assay, HTRF KinEase (Example B-2)
# Format: biochemical
# ASSAY_CONTEXT: protocol of Example B-2 (other compounds)
pIC50: −log10 of the molar value.

- COc1ccc2nccc(Oc3ccc(NC(=O)c4cn(C)c(C)c(-c5ccc(F)cc5)c4=O)cc3F)c2n1: < 6.52
- COc1cc2ncnc(Oc3ccc(NC(=O)c4c5n(cc(-c6ccc(F)cc6)c4=O)CCC5)cc3F)c2cc1OC: < 6.52

Inquiry: I would be grateful if you could share the reported pIC50 for COc1cc2nccc(Oc3ccc(NC(=O)c4cn(C(C)C)c(C)c(-c5ccc(F)cc5)c4=O)cc3F)c2nc1Br .
Reply text: < 6.52

Inquiry: Item: CCn1cc(C(=O)Nc2ccc(Oc3ccnc4cc(OC)c(OC)nc34)cc2)c(=O)c(-c2ccc(F)cc2)c1
Reply text: 6.52 to 7.00

---

# EXPERIMENTAL_SYSTEM: Human KDR (residues 790-1356) (Homo sapiens (Human), UniProt P35968)
# ASSAY_NOTES: Human KDR kinase assay, HTRF KinEase (Example B-2)
# Assay type: biochemical
# ASSAY_CONTEXT: protocol of Example B-2
OBSERVABLE: IC50

- CCc1nc(C)c(-c2ccc(F)cc2C)c(O)c1C(=O)Nc1ccc(Oc2ccnc3ccc(OC)nc23)cc1: > 300 nM
- COc1cc2nccc(Oc3ccc(NC(=O)c4nn(C)c(C)c(-c5ccc(F)cc5C)c4=O)cc3)c2nc1OC: < 100 nM
- COc1cc2nccc(Oc3ccc(NC(=O)c4ccnn(-c5ccc(F)cc5C)c4=O)cc3)c2nc1OC: 100 to 300 nM

Inquiry: Please report the recorded IC50 for COc1cc2nccc(Oc3ccc(NC(=O)c4cnc(N)n(-c5ccc(F)cc5)c4=O)cc3F)c2nc1OC .
Reply text: < 100 nM

Inquiry: Here is the next compound: COc1cc2c(Oc3ccc(NC(=O)c4cnc(C)c(-c5ccc(F)cc5)c4O)cc3)ccnc2cn1
Reply text: 100 to 300 nM

Inquiry: Note, next up: COc1cc2nccc(Oc3ccc(NC(=O)c4cn(CCO)c(C)c(-c5ccc(F)cc5)c4=O)cc3F)c2nc1OC
Reply text: > 300 nM

Inquiry: Same read-out for COc1ccc2nccc(Oc3ccc(NC(=O)c4cn(C)c(CF)c(-c5ccc(F)cc5)c4=O)cc3F)c2n1 ?
Reply text: > 300 nM

Inquiry: One more compound: Cc1nc2c(Oc3ccc(NC(=O)c4cn(C(C)C)c(C)c(-c5ccc(F)cc5)c4=O)cc3F)ccnc2cc1-c1cccnc1
Reply text: > 300 nM

Inquiry: Try this compound next: COc1ccc2nccc(Oc3ccc(NC(=O)c4c(C)n(C)cc(-c5ccc(F)cc5C)c4=O)cc3F)c2n1
Reply text: > 300 nM

Inquiry: Item: COc1cc2nccc(Oc3ccc(NC(=O)c4cnc(SC(C)C)n(-c5ccc(F)cc5)c4=O)cc3)c2cc1OC
Reply text: 100 to 300 nM

Inquiry: # repeat for COc1cc2nccc(Oc3ccc(NC(=O)c4cc(C)nn(-c5ccc(F)cc5)c4=O)cc3F)c2nc1OC
Reply text: > 300 nM

Inquiry: CCn1cc(C(=O)Nc2ccc(Oc3ccnc4cc(OC)c(OC)nc34)cc2)c(=O)c(-c2ccc(F)cc2)c1CF , same question.
Reply text: > 300 nM

---

# EXPERIMENTAL_SYSTEM: KDR (phospho-KDR, VEGF165-stimulated HUVEC cells) (Homo sapiens (Human), UniProt P35968)
# ASSAY_NOTES: KDR autophosphorylation ELISA in HUVEC cells (Example G)
# Assay type: cell-based
# ASSAY_CONTEXT: cellular activity; KDR autophosphorylation ELISA in HUVEC cells
Structures can show the parent of a compound that is named as a salt.
OBSERVABLE: IC50

// known answers, use as guide
* O=C(Nc1ccc(Oc2ccnc3cccnc23)c(F)c1)c1cccn(-c2ccc(F)cc2)c1=O | 100 to 300 nM
* COc1cc2nccc(Oc3ccc(NC(=O)c4cn(C)c(C)c(-c5ccc(F)cc5)c4=O)c(F)c3)c2nc1OC | > 300 nM
* Cc1nc2c(Oc3ccc(NC(=O)c4cnc(C)c(-c5ccc(F)cc5)c4O)cc3)ccnc2cc1-c1cccnc1 [Compound 616, hydrochloride] | < 100 nM
* COc1cc2c(Oc3ccc(NC(=O)c4cnc(C)c(-c5ccc(F)cc5)c4O)cc3F)ccnc2cn1 | < 100 nM
* COc1ccc2nccc(Oc3ccc(NC(=O)c4cnc(C)c(-c5ccc(F)cc5)c4O)cc3F)c2c1 | < 100 nM

Inquiry: Sample Cc1ncc(C(=O)Nc2ccc(Oc3ccnc4cc(-c5cnn(C(F)F)c5)ccc34)cc2)c(O)c1-c1ccc(F)cc1 — what was its IC50?
Reply text: < 100 nM

Inquiry: What do you have for CNC(=O)Cc1nc2c(Oc3ccc(NC(=O)c4cnc(C)c(-c5ccc(F)cc5)c4O)cc3F)ccnc2cc1OC ?
Reply text: < 100 nM

---

# EXPERIMENTAL_SYSTEM: Human KDR (residues 790-1356) (Homo sapiens (Human))
# ASSAY_NOTES: Human KDR kinase assay, HTRF KinEase (Example B-2)
# Assay type: biochemical
# ASSAY_CONTEXT: protocol of Example B-2 (other compounds)
Structures can show the parent of a compound that is named as a salt.
Parameter IC50: see the listing below.

* COc1ccc2nccc(Oc3ccc(NC(=O)c4cnc(C)c(-c5ccc(F)cc5)c4O)cc3F)c2n1 | 100 to 300 nM

Inquiry: # query: IC50 of entry COc1cc2nccc(Oc3ccc(NC(=O)c4nccn(-c5ccc(F)cc5)c4=O)cc3)c2nc1OC
Reply text: 100 to 300 nM

Inquiry: Could you do the same for COc1cc2nccc(Oc3ccc(NC(=O)c4cn(-c5cc[nH]n5)cc(-c5ccc(F)cc5)c4=O)cc3F)c2nc1OC , please?
Reply text: > 300 nM

Inquiry: Same for COc1ccc2nccc(Oc3ccc(NC(=O)c4nccn(-c5ccc(F)cc5)c4=O)cc3F)c2n1
Reply text: > 300 nM

Inquiry: Another compound to check: Cc1cc2nccc(Oc3ccc(NC(=O)c4cnc(C)c(-c5ccc(F)cc5)c4O)cc3F)c2nc1OCCCN1CCOCC1
Reply text: < 100 nM

Inquiry: // query: COc1ccc(-c2c(C)n(C(C)C)cc(C(=O)Nc3ccc(Oc4ccnc5cc(OC)c(OC)nc45)c(F)c3)c2=O)cc1 [Compound 31, hydrochloride]
Reply text: < 100 nM
